Source listed as patent US20030134883A1.

tested on: SF cancer cell line; assay: Cytotoxicity in cell culture (FIG. 3), SF; assay type: cell-based; settings: SF cells, in vitro
measurement.name: cytotoxicity

C/C1=C/[C@H](C)[C@@H](/C(C)=C/c2csc(C)n2)OC(=O)C[C@H](O)C(C)(C)C(=O)[C@H](C)[C@@H](O)[C@@H](C)CCC1 [(14S)-14-methylepothilone D]; cytotoxic
C/C(=C\c1csc(C)n1)[C@H]1OC(=O)C[C@H](O)C(C)(C)C(=O)[C@H](C)[C@@H](O)[C@@H](C)CCC[C@@]2(C)O[C@H]2[C@@H]1C [(14R)-14-methylepothilone B]; cytotoxic
C/C1=C/[C@@H](C)[C@@H](/C(C)=C/c2csc(C)n2)OC(=O)C[C@H](O)C(C)(C)C(=O)[C@H](C)[C@@H](O)[C@@H](C)CCC1 [(14R)-14-methylepothilone D]; essentially inactive
C/C(=C\c1csc(C)n1)[C@H]1OC(=O)C[C@H](O)C(C)(C)C(=O)[C@H](C)[C@@H](O)[C@@H](C)CCC[C@@]2(C)O[C@H]2[C@H]1C [(14S)-14-methylepothilone B]; essentially inactive
